// data source = patent US20260167721A1

- test target: T1, recombinant human CD3 epsilon/delta heterodimer (human, UniProt P07766 23-126; P04234 22-105)
- T1 construct: Recombinant heterodimer used as analyte in Octet; also called hCD3 E/D; human CD3E/D
- T1 sequence (P07766 23-126, stated change not applied, chain 1 of 2): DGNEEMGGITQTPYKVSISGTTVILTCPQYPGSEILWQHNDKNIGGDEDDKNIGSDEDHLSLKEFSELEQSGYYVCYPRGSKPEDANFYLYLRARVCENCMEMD
- T1 sequence (P04234 22-105, stated change not applied, chain 2 of 2): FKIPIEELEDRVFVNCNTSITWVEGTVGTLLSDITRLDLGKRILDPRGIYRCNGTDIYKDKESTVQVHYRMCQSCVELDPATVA
- experiment description: BLI (Octet), mAb 5 ug/mL on FAB2G sensor, hCD3 E/D 200-50 nM
pKd: −log10 of the molar value.
Rule: pKd under 8 gives FALSE, otherwise TRUE.

Record ABL-CD3-85 (antibody, V domains shown, mAb purified from hybridoma; chimeric AlivaMab IgG (human VH, CH1 and upper hinge; mouse middle hinge, CH2, CH3; human light chain)) VH: EVQLVESGGGLVKPGGSLRLSCAASGFTFSSYSMNWVRQAPGKGLEWVSSISRRSGYIYYADSVKGRFTLSRDNAKKSLYLQMNSLRAEDTAVYYCARDLNWAFDYWGQGTLVTVSS VL: NFMLTQPHSVSESPGKTVTISCTRSSGSIASNYVQWYQQRPGSSPTTVIYEDNHRPSGVPDRFSGSIDSSSNSASLTIAGLKTEDEADYYCQSCDSSNVVFGGGTKLTVL ; criterion: pKd no lower than 8. Met?
FALSE

Record ABL-CD3-66 (antibody, V domains shown, mAb purified from hybridoma; chimeric AlivaMab IgG (human VH, CH1 and upper hinge; mouse middle hinge, CH2, CH3; human light chain)) VH: QVQLQESGPGLVKPSETLSLTCTVSGGSISSYYWSWIRQPAGKGLEWIGRIYASGSTYYNPSLKSRVTMSVDTSKNQFSLKLSSVTAADTAVYYCAREKRSRLYFDYWGQGTLVTVSS VL: NFMLTQPHSVSESPGKTVTISCTRSSGSIASNYVQWYQQRPGSSPTTVIYEDNQRPSGVPDRFSGSIDSSSNSASLTISGLKTEDEGDYYCQSYDRSNRVFGGGTKLTVL ; criterion: pKd no lower than 8. Met?
FALSE

Record ABL-CD3-86 (antibody, V domains shown, mAb purified from hybridoma; chimeric AlivaMab IgG (human VH, CH1 and upper hinge; mouse middle hinge, CH2, CH3; human light chain)) VH: EVQLVESGGGLVKPGGSLRLSCAASGFTFSRYSMNWVRQAPGKGLEWVSTISRSSRYIYYGDSVKGRFTISRDNAKNSLLLQMNSLRAEDTAVYYCARDHNWSFDYWGKGILVTVSS VL: NFMLTQPLSVSESPGKTLTISCTRNSGSIASNYVQWYRQRPGSSPTTVIYEDKQRPSGVPDRFSGSIDSSSNSASLTISGLKAEDEADYYCQSCDSSNVVFGGGTTLTVL ; criterion: pKd no lower than 8. Met?
TRUE

Record ABL-CD3-67 (antibody, V domains shown, mAb purified from hybridoma; chimeric AlivaMab IgG (human VH, CH1 and upper hinge; mouse middle hinge, CH2, CH3; human light chain)) VH: EVQLVESGGGLVKPGGSLRLSCAASGFTVSSYSMNWVRQAPGKGLEWVSSISRSSSYIYYADSVKGRFTISRDNAKNSLFLQMNSLRAEDTAVYYCARERWELLYFDYWGQGTLVTVSS VL: NFMLTQPHSVSESPGKTVTISCTRSSGSIASNYVQWYRQRPGSSPTTVIYEDNQRPSGVPDRFSGAIDSSSTSASLTISGLKTEDEADYYCQSYDSSNRVFGGGTKLTVL ; criterion: pKd no lower than 8. Met?
FALSE
